TARGET SYSTEM: UniProt:P53987
Sequence (P53987 whole entry): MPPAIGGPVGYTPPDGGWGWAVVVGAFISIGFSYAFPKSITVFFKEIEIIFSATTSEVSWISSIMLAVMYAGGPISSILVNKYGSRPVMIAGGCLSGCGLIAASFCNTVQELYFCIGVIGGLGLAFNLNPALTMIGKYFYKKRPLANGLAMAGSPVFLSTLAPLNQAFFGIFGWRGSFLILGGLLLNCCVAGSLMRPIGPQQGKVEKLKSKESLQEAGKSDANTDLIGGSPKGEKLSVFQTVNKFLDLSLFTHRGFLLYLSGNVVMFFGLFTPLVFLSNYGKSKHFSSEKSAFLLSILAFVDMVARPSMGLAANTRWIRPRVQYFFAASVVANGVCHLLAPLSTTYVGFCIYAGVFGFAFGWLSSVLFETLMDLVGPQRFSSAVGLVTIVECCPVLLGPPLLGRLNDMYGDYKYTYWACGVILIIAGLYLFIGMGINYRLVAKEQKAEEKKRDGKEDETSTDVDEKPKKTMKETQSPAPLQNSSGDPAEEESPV
Sequence (P26453 141-388 partner): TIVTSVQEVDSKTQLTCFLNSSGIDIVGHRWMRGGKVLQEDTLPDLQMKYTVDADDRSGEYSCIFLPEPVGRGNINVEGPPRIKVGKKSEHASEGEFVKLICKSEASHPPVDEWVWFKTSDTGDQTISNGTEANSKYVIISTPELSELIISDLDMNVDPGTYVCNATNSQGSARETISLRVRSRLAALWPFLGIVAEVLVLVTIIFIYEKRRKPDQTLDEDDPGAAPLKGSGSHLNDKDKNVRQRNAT
EXPERIMENTAL PROTOCOL: Test A. MCT1 inhibition via lactate uptake in rat brain endothelial (RBE4) cells
Assay type: cell-based
CONDITION DESCRIPTION: 14C-lactate uptake
Listed here are molecules together with their documented log10(IC50).
Kindly note that the scale is log10 and the underlying IC50 is in µM.

C#CCN(CC#C)c1ccc(/C=C(\C#N)C(=O)O)c(OC)c1 = -1.04
O=C(O)c1cc2ccc(N(Cc3ccc(Cl)cc3)Cc3ccc(Cl)cc3)cc2oc1=O = -0.04
C#CCN(CC#C)c1ccc2cc(C(=O)O)c(=O)oc2c1 = -0.82
C=CCN(CC=C)c1ccc(/C=C(\C#N)C(=O)O)cc1 = -1.06
COc1cc(N(Cc2ccccc2)Cc2ccccc2)ccc1/C=C(\C#N)C(=O)O = -1.72

Alright, here's another molecule for you.
Record C=CCN(CC=C)c1ccc(/C=C(\C#N)C(=O)O)c(OC)c1 / UniProt:P53987, log10(IC50) recorded as -1.60

###

EXPERIMENTAL PROTOCOL: Pharmacokinetic study of Compound 20 in ICR mice
Assay type: in vivo
CONDITION DESCRIPTION: male, mouse, ip, 100 mg/kg i.p., plasma, mean
ATTRIBUTE MEASURED: AUC(0-inf) (µg·h/mL)
Supply the numeric figure in µg·h/mL, leaving out any unit text.

Query COc1cc(N(c2ccccc2)c2ccccc2)ccc1/C=C(\C#N)C(=O)O [Compound 20] yields AUC(0-inf) of 201

###

EXPERIMENTAL PROTOCOL: Pharmacokinetic study of Compound 20 in ICR mice
Assay type: in vivo
CONDITION DESCRIPTION: male, mouse, ip, 100 mg/kg i.p., plasma, mean
ATTRIBUTE MEASURED: Tmax (min)
The figure you give is taken to be in min; do not add the unit.

The molecule COc1cc(N(c2ccccc2)c2ccccc2)ccc1/C=C(\C#N)C(=O)O showed Tmax equal to 30

###

EXPERIMENTAL PROTOCOL: Pharmacokinetic study of Compound 20 in ICR mice
Assay type: in vivo
CONDITION DESCRIPTION: male, ICR, mouse, plasma, po, 100 mg/kg, 100 mg/kg p.o., 0.5 h, n = 3, read-out: Plasma Concentration, Mean
Protocol: 60 male ICR mice were split into two groups of 30. In each group the mice were prescribed Compound 20 at a dosage of 100 mg/kg. This dose was administered orally in group 1 and intraperitoneally in group 2. Each group of 30 mice was subdivided into groups of 3 mice. […] Plasma and Brain samples were centrifuged at 15777×g for 5 minutes, and 180 ul of supernatant was placed in a 96-well assay plate. […] 5 ul aliquots of each well were then analyzed using LC-MS/MS. […]
ATTRIBUTE MEASURED: concentration at 0.5 h (ng/mL)
A number alone suffices; assume ng/mL.

concentration at 0.5 h reported for this molecule COc1cc(N(c2ccccc2)c2ccccc2)ccc1/C=C(\C#N)C(=O)O : 15500

###

EXPERIMENTAL PROTOCOL: Pharmacokinetic study of Compound 20 in ICR mice
Type: in vivo
CONDITION DESCRIPTION: male, ICR, mouse, plasma, ip, 100 mg/kg, 100 mg/kg i.p., 4 h, n = 3, read-out: Plasma Concentration, Mean
ATTRIBUTE MEASURED: concentration at 4 h (ng/mL)
The figure you give is taken to be in ng/mL; do not add the unit.

Per the record, COc1cc(N(c2ccccc2)c2ccccc2)ccc1/C=C(\C#N)C(=O)O [Compound 20] has concentration at 4 h of 25100
